Target: p53-MDM2 interaction (GST-MDM2 protein aa 23-117 / biotinylated p53 wt peptide) (Homo sapiens (Human), UniProt Q00987)
Sequence (Q00987 23-117): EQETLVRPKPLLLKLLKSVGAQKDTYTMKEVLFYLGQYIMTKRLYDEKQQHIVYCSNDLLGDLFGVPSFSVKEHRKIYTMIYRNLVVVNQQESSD
Assay: Mdm2-p53 Inhibition AlphaScreen
Settings: GST-MDM2 (aa 23-117) / biotinylated p53 wt peptide
Protocol: Mdm2-p53 Inhibition AlphaScreen 15 μL of compound in 20% DMSO (serial pre-dilutions of compound are done in 100% DMSO) is pipetted to the wells of a white OptiPlate-96 (Perkin Elmer). […] Afterwards, the signal is measured in a PerkinElmer Envision HIS Multilabel Reader using the AlphaScreen protocol from Perkin Elmer. […]
# 1 = IC50 below 5 nM (exclusive); 0 = IC50 at/above 5 nM

# input Below 5 nM on IC50? Entry CCOc1cccc(CN2[C@@H]3CCn4c(nc5cc(C(=O)O)ccc54)[C@@H]3[C@@H](c3cccc(Cl)c3F)[C@@]23C(=O)Nc2cc(Cl)ccc23)c1 [Ib-141]
# output 0

# input Below 5 nM on IC50? Entry COCC(COC)NC(=O)c1ccc2c(c1)nc1n2CC[C@H]2[C@@H]1[C@H](c1cccc(Cl)c1F)[C@]1(C(=O)Nc3cc(Cl)ccc31)N2CC1CC1 [Ib-217]
# output 1

# input Below 5 nM on IC50? Entry CNC(=O)c1ccc2c(c1)nc1n2C[C@H]2[C@@H]1[C@H](c1cccc(Cl)c1F)[C@]1(C(=O)Nc3cc(Cl)ccc31)N2CC1CC1 [Ib-240]
# output 1

# input Below 5 nM on IC50? Entry O=C(NC1CC1)c1ccc2c3n(nc2c1)[C@@H]1[C@H](C3)N(CC2CCC2)[C@@]2(C(=O)Nc3cc(Cl)ccc32)[C@H]1c1cccc(Cl)c1F [Ia-47]
# output 0

# input Below 5 nM on IC50? Entry O=C(O)c1ccc2c(c1)nc1n2C[C@H]2[C@@H]1[C@H](c1cc(Cl)cs1)[C@]1(C(=O)Nc3cc(Cl)ccc31)N2CC1CC1 [Ib-200]
# output 1

# input Below 5 nM on IC50? Entry COCc1cccc(CN2[C@H]3CCn4c(nc5cc(C(=O)O)ccc54)[C@H]3[C@H](c3cccc(Cl)c3F)[C@]23C(=O)Nc2cc(Cl)ccc23)c1 [Ib-142]
# output 1

# input Below 5 nM on IC50? Entry O=C(O)c1ccc2c(c1)nc1n2CC[C@H]2[C@@H]1[C@H](c1cccc(Cl)c1F)[C@]1(C(=O)Nc3cc(Cl)ccc31)N2CC1CCCCC1 [Ib-137]
# output 0

# input Below 5 nM on IC50? Entry O=C(O)c1ccc2nc3n(c2c1)CC[C@H]1[C@@H]3[C@H](c2cccc(Cl)c2F)[C@]2(C(=O)Nc3cc(Cl)ccc32)N1CC1CC1 [Ib-154]
# output 1

# input Below 5 nM on IC50? Entry NC(=O)c1ccc2nc3n(c2c1)CC[C@H]1[C@@H]3[C@H](c2cccc(Cl)c2F)[C@]2(C(=O)Nc3cc(Cl)ccc32)N1CC1CC1 [Ib-238]
# output 0

# input Below 5 nM on IC50? Entry O=C(NCCO)c1ccc2c(c1)nc1n2CC[C@H]2[C@@H]1[C@H](c1cccc(Cl)c1F)[C@]1(C(=O)Nc3cc(Cl)ccc31)N2CC1CC1 [Ib-215]
# output 1

# input Below 5 nM on IC50? Entry CCOc1cccc(CN2[C@H]3Cc4c5ccc(C(=O)O)cc5nn4[C@H]3[C@H](c3cccc(Cl)c3F)[C@]23C(=O)Nc2cc(Cl)ccc23)c1 [Ia-32]
# output 1

# input Below 5 nM on IC50? Entry CC(C)(O)CNC(=O)c1ccc2c3n(nc2c1)[C@@H]1[C@H](C3)N(CC2CCC2)[C@@]2(C(=O)Nc3cc(Cl)ccc32)[C@H]1c1cccc(Cl)c1F [Ia-46]
# output 0

# input Below 5 nM on IC50? Entry O=C(NO)c1ccc2c(c1)nc1n2CC[C@H]2[C@@H]1[C@H](c1cccc(Cl)c1F)[C@]1(C(=O)Nc3cc(Cl)ccc31)N2CC1CC1 [Ib-231]
# output 1

# input Below 5 nM on IC50? Entry CCOc1cccc(CN2[C@H]3Cc4c5cc(C)c(C(=O)N6CCOCC6)cc5nn4[C@H]3[C@H](c3cccc(Cl)c3F)[C@]23C(=O)Nc2cc(Cl)ccc23)c1 [Ia-54]
# output 0

# input Below 5 nM on IC50? Entry CNC(=O)c1ccc2c(c1)nc1n2CC[C@H]2[C@@H]1[C@H](c1cccc(Cl)c1F)[C@]1(C(=O)Nc3cc(Cl)ccc31)N2CC(C)C [Ib-233]
# output 1

# input Below 5 nM on IC50? Entry CNC(=O)c1cc2nc3n(c2cc1C)CC[C@H]1[C@@H]3[C@H](c2cccc(Cl)c2F)[C@]2(C(=O)Nc3cc(Cl)ccc32)N1CC1CC1 [Ib-237]
# output 0

# input Below 5 nM on IC50? Entry CCN1[C@H]2Cc3c4ccc(C(=O)NCCN(C)C)cc4nn3[C@H]2[C@H](c2cccc(Cl)c2F)[C@]12C(=O)Nc1cc(Cl)ccc12 [Ia-51]
# output 0

# input Below 5 nM on IC50? Entry O=C(NC(CO)CO)c1ccc2c(c1)nc1n2CC[C@H]2[C@@H]1[C@H](c1cccc(Cl)c1F)[C@]1(C(=O)Nc3cc(Cl)ccc31)N2CC1CC1 [Ib-214]
# output 1

# input Below 5 nM on IC50? Entry CCN1[C@H]2Cc3c4ccc(C(=O)N5CCCCC5)cc4nn3[C@H]2[C@H](c2cccc(Cl)c2F)[C@]12C(=O)Nc1cc(Cl)ccc12 [Ia-52]
# output 0

# input Below 5 nM on IC50? Entry CC(C)CCN1[C@H]2CCn3c(nc4cc(C(=O)O)ccc43)[C@H]2[C@H](c2cccc(Cl)c2F)[C@]12C(=O)Nc1cc(Cl)ccc12 [Ib-119]
# output 0

# input Below 5 nM on IC50? Entry O=C(O)c1cc2nc3n(c2cc1OC(F)(F)F)C[C@H]1[C@@H]3[C@H](c2cccc(Cl)c2F)[C@]2(C(=O)Nc3cc(Cl)ccc32)N1CC1CC1 [Ib-197]
# output 1

# input Below 5 nM on IC50? Entry CCOc1cccc(CN2[C@H]3CCn4c(nc5cc(C(=O)O)ccc54)[C@H]3[C@H](c3cccc(Cl)c3F)[C@]23C(=O)Nc2nc(Cl)ccc23)c1 [Ib-173]
# output 0
